A collection of molecules and their measured T/C
- Tested on: P388 leukemia ip, CD2F1 mice, survival T/C
- Protocol Notes: NCI In Vivo Anticancer Drug Screen. Data for tumor model P388 Leukemia (intraperitoneal) in CD2F1 (CDF1) mice
- Run Conditions: endpoint: median survival time; dose: 50.0 mg/kg/injection; schedule: Q01DX009 (ip); vehicle: Klucel (hydroxypropylcellulose) (HPC); higher = longer survival
Inconclusive results and toxic doses are left out.
Measure: T/C

• COc1ccc(-c2c(C#N)cnc(C)c2C)c(O)c1OC = 92 % of control
• CCCCCCCCCC1(CC(=O)OCC)SCCN1C(N)=O (centres undefined) = 113 % of control
• COC(=O)C1=C(N)C(C#N)=C(C)C(C)(O)C1 (centres undefined) = 99 % of control
• CC12CC3(Br)CC(Br)(C1)CC(CC(=O)O)(C2)C3 = 103 % of control
